src = ChEMBL document CHEMBL3137667

measurementSetup: human, serum
quantityName: Hepatotoxicity (acute)
// no unit, no text: just the number

INSERT INTO assay_data (compound, experimentalresult) VALUES
  ('c1ccc2c(CCC3CCNCC3)c[nH]c2c1 [INDALPINE]', 1),
  ('O=c1cc(Cc2ccccc2)[nH]c(=S)[nH]1 [BENZYLTHIOURACIL]', 1),
  ('CCCC(C)C1(CC)C(=O)NC(=S)NC1=O (stereo not given) [THIOPENTAL]', 2),
  ('CCC(c1ccccc1)c1c(O)c2ccccc2oc1=O (stereo not given) [PHENPROCOUMON]', 18);

stdin: Look up Hepatotoxicity (acute) of CCC(=O)NS(=O)(=O)c1ccc(-c2c(-c3ccccc3)noc2C)cc1 [PARECOXIB] and report it.
stdout: 0

---

measurementSetup: human
Where a SMILES comes first, the peptide text is derived from it. Bridges are numbered along the chain shown (N, C = ends). [ ]: non-standard residue; d: D form.
Listing: Hepatotoxicity (choleostasis) of selected compounds
// no unit, no text: just the number

As a guide, the following entries are already answered.
INSERT INTO measurements (compound, experimentalresult) VALUES
  ('CO/N=C(\C(=O)N[C@@H]1C(=O)N2C(C(=O)[O-])=C(C[n+]3cccc4c3CCC4)CS[C@H]12)c1csc(N)n1 [CEFPIROME]', 0),
  ('CC(=O)OCC(=O)[C@@]1(O)CC[C@H]2[C@@H]3CCC4=CC(=O)C=C[C@]4(C)[C@@]3(F)[C@@H](O)C[C@@]21C [ISOFLUPREDONE ACETATE]', 0),
  ('CC(C)OC(=O)C(C)(C)Oc1ccc(C(=O)c2ccc(Cl)cc2)cc1 [FENOFIBRATE]', 5);

stdin: Look up Hepatotoxicity (choleostasis) of CC(C)[C@@H]1NC(=O)[C@H](CCCCN)NC(=O)[C@@H](Cc2c[nH]c3ccccc23)NC(=O)[C@H](Cc2ccc(O)cc2)NC(=O)[C@@H](NC(=O)[C@H](N)Cc2ccccc2)CSSC[C@@H](C(=O)N[C@@H](Cc2c[nH]c3ccccc23)C(N)=O)NC1=O [VAPREOTIDE] (H-[dF]CY[dW]KVCW-NH2; disulfide 2-7) and report it.
stdout: 0

stdin: Look up Hepatotoxicity (choleostasis) of CC(NCCc1ccc(O)cc1)C(O)c1ccc(O)cc1 (configuration not stated) [RITODRINE] and report it.
stdout: 1

stdin: Look up Hepatotoxicity (choleostasis) of N#CN [CYANAMIDE] and report it.
stdout: 2

stdin: Look up Hepatotoxicity (choleostasis) of O=C(Nc1cccc2c(=O)cc(-c3nnn[nH]3)oc12)c1ccc(OCCCCc2ccccc2)cc1 and report it.
stdout: 0

---

Listing: Hepatotoxicity (choleostasis) of selected molecules
measurementSetup: human, Liver

As a guide, the following entries are already answered.
INSERT INTO results (molecule, experimentalresult) VALUES
  ('OC(CCN1CCCCC1)(c1ccccc1)C1CCCCC1 (stereo not given) [TRIHEXYPHENIDYL]', 0),
  ('N[C@@H]1C[C@H]1c1ccccc1.N[C@H]1C[C@@H]1c1ccccc1 [TRANYLCYPROMINE]', 2),
  ('Clc1ccccc1CN1CCc2sccc2C1 [TICLOPIDINE]', 56),
  ('OC(Cn1cncn1)(Cn1cncn1)c1ccc(F)cc1F [FLUCONAZOLE]', 13),
  ('CCCCc1oc2ccccc2c1C(=O)c1cc(I)c(OCCN(CC)CC)c(I)c1 [AMIODARONE]', 6);

stdin: Look up Hepatotoxicity (choleostasis) of CC1=C(/C=C/C(C)=C/C=C/C(C)=C/CO)C(C)(C)CCC1 [RETINOL] and report it.
stdout: 0

stdin: Look up Hepatotoxicity (choleostasis) of CCN(CC)Cc1cc(Nc2ccnc3cc(Cl)ccc23)ccc1O.Cl and report it.
stdout: 4

stdin: Look up Hepatotoxicity (choleostasis) of CCc1cc(C(N)=S)ccn1 [ETHIONAMIDE] and report it.
stdout: 6

stdin: Look up Hepatotoxicity (choleostasis) of O=P1(N(CCCl)CCCl)NCCCO1 (stereo not given) [CYCLOPHOSPHAMIDE ANHYDROUS] and report it.
stdout: 2

stdin: Look up Hepatotoxicity (choleostasis) of Cc1ncc(C[n+]2csc(CCO)c2C)c(N)n1 [THIAMINE ION] and report it.
stdout: 0
